Source of measurements: the supplement of paper PMC6555819

Each entry below carries its recorded PBM binding z-score.
- Test system: PPARg:RXRa (NR concentration 180 nM, RXRa partner concentration 90 nM)
- Test: PBM binding z-score (relative to random genomic background probes); higher = stronger binding; sequences stand for … in GC…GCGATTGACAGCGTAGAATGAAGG
Experimental Readout: PBM binding z-score

1) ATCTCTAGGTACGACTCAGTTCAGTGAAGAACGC : 0.161
2) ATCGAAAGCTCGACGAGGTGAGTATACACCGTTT : 0.614
3) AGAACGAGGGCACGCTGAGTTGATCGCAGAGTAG : 1.93
4) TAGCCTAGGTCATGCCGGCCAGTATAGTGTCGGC : 1.99
5) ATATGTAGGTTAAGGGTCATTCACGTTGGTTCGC : 11.8
6) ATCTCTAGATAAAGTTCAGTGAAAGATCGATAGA : 2.39
7) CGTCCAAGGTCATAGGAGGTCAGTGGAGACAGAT : 5.84
8) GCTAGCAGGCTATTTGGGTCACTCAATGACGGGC : 1.11
9) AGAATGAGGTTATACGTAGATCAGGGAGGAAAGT : 1.85
10) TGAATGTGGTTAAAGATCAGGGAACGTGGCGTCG : 1.33
11) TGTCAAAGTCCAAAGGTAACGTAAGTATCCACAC : 2.27
12) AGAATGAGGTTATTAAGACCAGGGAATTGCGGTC : 1.57
13) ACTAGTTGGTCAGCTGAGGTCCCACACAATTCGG : 0.275
14) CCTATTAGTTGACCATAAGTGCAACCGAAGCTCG : 0.672
15) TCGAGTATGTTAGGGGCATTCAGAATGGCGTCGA : 0.0373
16) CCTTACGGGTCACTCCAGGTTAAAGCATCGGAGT : 3.59
17) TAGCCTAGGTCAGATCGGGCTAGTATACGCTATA : 0.628
18) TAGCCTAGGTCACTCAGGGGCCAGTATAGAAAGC : 2.64
19) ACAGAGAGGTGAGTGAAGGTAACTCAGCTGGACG : 0.736
20) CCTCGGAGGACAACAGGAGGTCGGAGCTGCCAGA : -0.122
